Provenance of the data: patent US8519149B2

assayedSystem: Recombinant human mPGES-1 (Homo sapiens, UniProt O14684)
Sequence (O14684 whole entry): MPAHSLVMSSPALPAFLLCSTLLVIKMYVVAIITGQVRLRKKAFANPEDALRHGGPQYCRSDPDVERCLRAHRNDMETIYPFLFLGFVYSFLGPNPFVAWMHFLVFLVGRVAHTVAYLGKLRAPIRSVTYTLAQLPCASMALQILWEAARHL
protocolSummary: In-vitro mPGES-1 enzyme inhibition assay (PGE2 formation from PGH2, HTRF detection)
Type: biochemical
runConditions: 10 μM test compound; recombinant human mPGES-1 microsomal fraction; read-out: Percentage inhibition at 10 μM
assayReadout: inhibition at 10 µM (%)
Numeric only. Scale: %

For orientation, consider the following solved cases.
[[record]]
compound = "Cn1c(Nc2c(Cl)cncc2Cl)nc2cc(C(=O)Nc3cc(C4CC4)ccc3F)c3c(c21)CC(C)(C)O3 [Example-217]"
assayreadout = "inhibition at 10 µM"
units = "%"
assayresult = 99.9

[[record]]
compound = "CC1(C)Cc2c(c(C(=O)Nc3ccc(F)cc3C(F)(F)F)cc3nc(Nc4c(F)cccc4Cl)[nH]c23)O1 [Example-117]"
assayreadout = "inhibition at 10 µM"
units = "%"
assayresult = 98.7

[[record]]
compound = "Cc1cccc(Cl)c1Nc1nc2cc(C(=O)Nc3ccc(C(F)(F)F)c[n+]3[O-])c3c(c2[nH]1)CC(C)(C)O3 [Example-163]"
assayreadout = "inhibition at 10 µM"
units = "%"
assayresult = 96.9


Which inhibition at 10 µM reading was recorded for the compound CC1(C)Cc2c(c(C(=O)Nc3ccc(Br)cc3)cc3nc(Nc4c(Cl)cccc4Cl)[nH]c23)O1 [Example-11] ?
100

Fill in the blank: the reported inhibition at 10 µM of CC1(C)Cc2c(c(C(=O)NC34CC5CC(CC(C5)C3)C4)cc3nc(Nc4c(Cl)cncc4Cl)[nH]c23)O1 [Example-19] is ____.
98.3

Please report the recorded inhibition at 10 µM for Cc1cc2c(o1)c(C(=O)NCc1ccc(F)cc1)cc1nc(Nc3c(Cl)cccc3Cl)[nH]c12 [Example-35] .
99.1

Recorded inhibition at 10 µM for CC1(C)Cc2c(c(C(=O)NC3CCCCC3)cc3nc(Nc4c(Cl)cncc4Cl)sc23)O1 [Example-28] , please?
98.9

What inhibition at 10 µM value was documented for this compound, CC1(C)Cc2c(c(C(=O)NNc3ccc(Br)cc3)cc3nc(Nc4c(Cl)cccc4Cl)[nH]c23)O1 [Example-74] ?
94.7

I would be grateful if you could share the reported inhibition at 10 µM for CC1(C)Cc2c(c(C(=O)Nc3cccc(C(C)(F)F)c3)cc3nc(Nc4c(F)cccc4Cl)[nH]c23)O1 [Example-119] .
100

Quick check: inhibition at 10 µM of CC1(C)Cc2c(c(C(=O)Nc3nc(C(C)(C)C)cs3)cc3nc(Nc4c(F)cccc4Cl)[nH]c23)O1 [Example-53] ?
85.4
